# Test system: Escherichia coli TOP10;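 further: peptides expressed intracellularly from a pBAD plasmid library in pooled LB shake-flask culture, induced with 0.3% L-arabinose, DNA abundance read by NGS, three biological replicates, DESeq2 with apeglm shrinkage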
# assay-procedure: shrunken log2 fold change of peptide-encoding DNA abundance (4.5 h post-induction vs induction); higher = less antimicrobial activity (less host growth inhibition)
# condition-notes: time post-induction: 4.5 h; library: site-saturation at positions 5, 18, 19, 20
Assignment: determine reported shrunken log2 fold change for the given sequences.
Form: value (number only, do not type unit).

Quick note, shrunken log2 fold change for RRIRTRPPRLPRPRPRPAMWPRP landed at 0.35

Quick note, shrunken log2 fold change for RRIRPRPPRLPRPRPRPKKYPRP landed at -0.555

Quick note, shrunken log2 fold change for RRIRFRPPRLPRPRPRPDTFPRP landed at -0.144

Quick note, shrunken log2 fold change for RRIRERPPRLPRPRPRPFPSPRP landed at -0.0393

Quick note, shrunken log2 fold change for RRIRNRPPRLPRPRPRPGWKPRP landed at -0.00965

Quick note, shrunken log2 fold change for RRIRIRPPRLPRPRPRPKVPPRP landed at 0.167

Quick note, shrunken log2 fold change for RRIRNRPPRLPRPRPRPSNGPRP landed at -0.12

Quick note, shrunken log2 fold change for RRIRLRPPRLPRPRPRPCSTPRP landed at -0.0337

Quick note, shrunken log2 fold change for RRIRDRPPRLPRPRPRPFNLPRP landed at -0.176

Quick note, shrunken log2 fold change for RRIRKRPPRLPRPRPRPGYEPRP landed at -0.0888

Quick note, shrunken log2 fold change for RRIRDRPPRLPRPRPRPVCMPRP landed at 0.219

Quick note, shrunken log2 fold change for RRIRCRPPRLPRPRPRPKATPRP landed at 0.0985

Quick note, shrunken log2 fold change for RRIRARPPRLPRPRPRPYNSPRP landed at -1.21

Quick note, shrunken log2 fold change for RRIRARPPRLPRPRPRPGRVPRP landed at 0.612

Quick note, shrunken log2 fold change for RRIRKRPPRLPRPRPRPGKWPRP landed at 0.184
